These data points were gathered from PubChem BioAssay.

ASSAY NOTES: LFS_MB_P medulloblastoma growth inhibition, cell-based, chromothripsis tumors, cisplatin or BGB combos (AID 1671449);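 further: cells exposed for 96 hours; 0% = vehicle DMSO and 100% = killing by high DMSO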
RECORDED CONDITIONS: LFS_MB_P medulloblastoma cells, measured here: combination with BGB IC40, at 0.05 µM
READOUT TYPE: inhibition

COMPOUND: CCc1c2c(nc3ccc(O)cc13)-c1cc3c(c(=O)n1C2)COC(=O)[C@]3(O)CC
RESULT: -20.9%
--
COMPOUND: Cc1c(-c2cnccn2)ssc1=S
RESULT: -17.6%
--
COMPOUND: NC(=O)c1ncn(C2OC(CO)C(O)C2O)n1 (configuration not stated)
RESULT: -2.38%

Working through the 4 compounds below one at a time, give inhibition for each.
1. O=c1[nH]c(-c2ccc(C(F)(F)F)cc2)nc2c1CSCC2
2. CC(C)N=c1cc2n(-c3ccc(Cl)cc3)c3ccccc3nc-2cc1Nc1ccc(Cl)cc1
3. O=c1ncccn1[C@@H]1O[C@H](CO)[C@@H](O)[C@H]1O
4. O=C(Nc1ccncc1)c1cc([N+](=O)[O-])ccc1Cl

Output:
1: -21.3%; 2: -8.73%; 3: -21.7%; 4: -56.1%
